Hello, the source for this data is PubChem BioAssay (NCI), in case you need it.

test: NCI Yeast Anticancer Drug Screen. Data for the rad50 strain (AID 155);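 further: 0% = growth of vehicle-only cultures of the same strain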; details: S. cerevisiae rad50 strain growth inhibition; at 50.0 µM
This is part of a sample that, as a whole, favours compounds with a hit. Of some 79,000 tested, about 15% had one in any assay. The source made the active and inactive calls. No stated cut-off is given here; in the data, active means growth inhibition above about 70%; inactive means the rest.
Labels: TRUE for active, FALSE for inactive

[[record]]
smiles_structure = "COc1cc(C)nc2ccc(Cc3ccc4nc(C)cc(OC)c4c3)cc12"
class_label = "FALSE"

[[record]]
smiles_structure = "Cc1c(/C=N/N(C)C)oc2c1cc(O)c1ncccc12"
class_label = "FALSE"

[[record]]
smiles_structure = "Cc1cc2c(nn1)CCc1c-2no[n+]1[O-]"
class_label = "FALSE"

[[record]]
smiles_structure = "Cn1c2ccccc2c2ccc3c(c21)C(=O)C(c1ccccc1)=CC3=O"
class_label = "FALSE"

[[record]]
smiles_structure = "CC(=NCCN(CCN=C(C)c1c(O)cc(C)oc1=O)CCN=C(C)c1c(O)cc(C)oc1=O)c1c(O)cc(C)oc1=O"
class_label = "FALSE"

[[record]]
smiles_structure = "COc1c(Cl)c(Cl)c([N+](=O)[O-])c(Cl)c1Cl"
class_label = "FALSE"

[[record]]
smiles_structure = "O=[N+]([O-])c1ccc(Nc2ccccc2)nc1"
class_label = "FALSE"

[[record]]
smiles_structure = "O=C(NCCNCCCNC(=O)c1cc(-c2ccccc2)nc2ccccc12)c1cccc(OCc2ccccc2)c1OCc1ccccc1"
class_label = "TRUE"

[[record]]
smiles_structure = "Cc1ccc(CC(=O)C(=O)O)c([N+](=O)[O-])c1"
class_label = "FALSE"


---

test: NCI Yeast Anticancer Drug Screen. Data for the cln2 rad14 strain (AID 165);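 further: 0% = growth equal to vehicle treated cultures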; conditions: S. cerevisiae cln2 rad14 strain, at 50.0 µM, stronger effect = higher value
The panel holds about 79,000 compounds, 15% with a hit somewhere; the sample as a whole holds those more often.
OBSERVABLE: growth inhibition (%)

[[record]]
compound = "CCN(CCO)CC(=O)c1cc(Cl)ccc1OC"
observable = "growth inhibition"
result_value = -37

[[record]]
compound = "CC(=O)NC(Cc1ccccc1)c1ccccc1 (centres undefined)"
observable = "growth inhibition"
result_value = 12.8

[[record]]
compound = "Cc1c(-c2nc(N)nc(C3CC3)c2C)nc(N)nc1C1CC1"
observable = "growth inhibition"
result_value = -11.7

[[record]]
compound = "COC(=O)C(C(=O)OC)C(c1cccc([N+](=O)[O-])c1)C(N)c1ccccc1 (centres undefined)"
observable = "growth inhibition"
result_value = 28.2


---

experiment: NCI Yeast Anticancer Drug Screen. Data for the mlh1 rad18 strain (AID 175); settings: S. cerevisiae mlh1 rad18 strain growth inhibition; at 50.0 µM
Compounds without any hit were thinned out: in the full panel of roughly 79,000, 15% have a hit. The source made the active and inactive calls. Rule as the data show it: active = growth inhibition above about 70%; inactive = the rest.
Labels: 1 = active, 0 = inactive

[[record]]
molecule = "O=C(O)c1cc2c(c3c1CCCC3)CCC1CCCC21 (stereo not drawn)"
class_label = 0

[[record]]
molecule = "CC1(C)/C(=C/N=O)N(O)C(C)(C)N1O"
class_label = 0

[[record]]
molecule = "O=c1[nH]cc(COCC(F)(F)C(F)(F)C(F)(F)C(F)F)c(=O)[nH]1"
class_label = 0

[[record]]
molecule = "C/C(=N\\[N+](C)(C)C)c1ccc2ccccc2c1"
class_label = 0

[[record]]
molecule = "Cc1[nH]c2ccccc2c1C(c1cc(Cl)cc(Cl)c1O)c1c(C)[nH]c2ccccc12"
class_label = 0

[[record]]
molecule = "Cc1ccc(C(=O)C(c2nc3n(c2O)/C(=N/C(=O)Nc2ccc(Cl)cc2)N=N3)c2nc3n(c2O)/C(=N/C(=O)Nc2ccc(Cl)cc2)N=N3)cc1"
class_label = 0

[[record]]
molecule = "Nc1ncnc2c1nnn2CCCCCC(=O)O"
class_label = 0

[[record]]
molecule = "Nc1nc(=O)n(CCCOc2ccc([N+](=O)[O-])c(Cl)c2)cc1-c1ccc(Cl)c(Cl)c1"
class_label = 0

[[record]]
molecule = "O=S(=O)(O)c1cc(I)c(O)c2ncccc12"
class_label = 0

[[record]]
molecule = "O=c1[nH]c2cc(Cl)ccc2nc1/C=C(\\O)c1ccc(F)cc1"
class_label = 0

[[record]]
molecule = "CC1=C(CCC(=O)O)c2cc3nc(cc4[nH]c(cc5[nH]c(cc1n2)c(C)c5C(C)O)c(C)c4C(C)O)C(C)=C3CCC(=O)O (stereo not drawn)"
class_label = 0

[[record]]
molecule = "COc1cc(C=NCc2ccccc2)cc(OC)c1O"
class_label = 0

[[record]]
molecule = "COc1ccc(/C=C2\\CN(C)Cc3c2nc(N)nc3-c2ccc(OC)cc2)cc1"
class_label = 0

[[record]]
molecule = "N#C/C(=C\\c1cccnc1)c1ccc(Br)cc1"
class_label = 1

[[record]]
molecule = "CCOC(=O)c1c(C)[nH]c(=S)c(C#N)c1-c1cccc2ccccc12"
class_label = 0

[[record]]
molecule = "CC(=O)OC1CCC2(C)C3=CCC4(C)C(C(C)=O)=CCC4C3CCC2C1 (stereo not drawn)"
class_label = 0

[[record]]
molecule = "N#CCc1nc(-c2cc3ccccc3oc2=O)cs1"
class_label = 0

[[record]]
molecule = "CN1C(c2ccccc2)=C(C#N)C(=O)CC(c2ccco2)N1C (stereo not drawn)"
class_label = 0

[[record]]
molecule = "Cc1ccc2c(c1)C(C(C)C)CCC2(C)C (stereo not drawn)"
class_label = 0

[[record]]
molecule = "Cc1ccc(C(=O)N(Cc2ccccc2)Cc2ccccc2)cc1N=NN(C)C"
class_label = 0

[[record]]
molecule = "Cc1cc(C)c([N+](=O)[O-])cc1[N+](=O)[O-]"
class_label = 0

[[record]]
molecule = "O=[N+]([O-])c1ccc(OC2OC(CO)C(O)C(O)C2O)cc1 (stereo not drawn)"
class_label = 0

[[record]]
molecule = "CCOc1ccc(C(C)c2cc3c(cc2OCCO)OCO3)cc1 (stereo not drawn)"
class_label = 0

[[record]]
molecule = "Nc1ccc(N2N=C(N3CCCC3)CC2=O)cc1"
class_label = 0

[[record]]
molecule = "Cc1cc(C)c(C2[C@H]3C(=O)N(c4ccc(Cc5ccc(N6C(=O)[C@@H]7ON(c8ccccc8)C(c8c(C)cc(C)cc8C)[C@@H]7C6=O)cc5)cc4)C(=O)[C@H]3ON2c2ccccc2)c(C)c1 (stereo partly drawn)"
class_label = 0

[[record]]
molecule = "COC(=O)C12CC3CC(CC(C(=O)O)(C3)C1)C2"
class_label = 0

[[record]]
molecule = "Cc1ccccc1C(=O)NNC(=O)c1ccc2ccccc2c1"
class_label = 0

[[record]]
molecule = "COC(=O)c1cc2c(o1)Sc1ccccc1NC2=O"
class_label = 0

[[record]]
molecule = "N#Cc1c(O)c(N=Nc2ccccc2F)c(=O)n2c1[nH]c1ccccc12"
class_label = 0

[[record]]
molecule = "CC(C)CN(CC(C)C)C(=O)CCl"
class_label = 0

[[record]]
molecule = "O=Cc1cc(C=O)c2ccc(=O)[nH]c2n1"
class_label = 0

[[record]]
molecule = "CC(=O)OC1CC2C(CCC3CC(C(C)=O)CCC32C)C2CCC(/C(C)=C/C=C(c3ccccc3)c3ccccc3)C12C (stereo not drawn)"
class_label = 0

[[record]]
molecule = "COC(=O)Cc1oc(=O)n(-c2ccccc2)c(=O)c1C(=O)OC"
class_label = 0

[[record]]
molecule = "Cc1nc2cncnc2n(CCN2CCOCC2)c1=O"
class_label = 0

[[record]]
molecule = "COC(=O)c1ccc(NC(=O)c2cc(OC)c(OC)c(OC)c2)cc1"
class_label = 0

[[record]]
molecule = "CCOc1ccc2c(c1)nc1ccccc1[n+]2C"
class_label = 0

[[record]]
molecule = "OC1CCC(c2ccccc2)CC1 (stereo not drawn)"
class_label = 0

[[record]]
molecule = "COC(=O)N/N=C(\\C)C(CN1CCCCC1)C(C1=C(O)c2ccccc2OC1)c1ccccc1 (stereo not drawn)"
class_label = 0


---

assay: NCI Yeast Anticancer Drug Screen. Data for the sgs1 mgt1 strain (AID 161);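 further: 0% = growth of cultures given vehicle only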; settings: S. cerevisiae sgs1 mgt1 strain, at 50.0 µM, stronger effect = higher value
Compounds without any hit were thinned out: in the full panel of roughly 79,000, 15% have a hit.
OBSERVABLE: growth inhibition (%)

[[record]]
compound = "NC(=S)N/N=C/c1ncccc1N"
result_value = 39.2

[[record]]
compound = "CC(=O)Oc1ccccc1OC(=S)N(C)C"
result_value = -5.5

[[record]]
compound = "CCn1c2c(c3ccccc31)[C@@H](c1ccc(Cl)cc1)CC1C(=O)N(c3ccccc3)C(=O)C21 (stereo not given in full)"
result_value = 14.8

[[record]]
compound = "CC1OC(n2ccc(NC(=O)c3ccc(NC(=O)C(C)(N)CO)cc3)nc2=O)CCC1OC1OC(C)C(N(C)C)C(O)C1O (stereo not given)"
result_value = 6.05

[[record]]
compound = "O=C(Nc1ccc(Cl)cc1)OCC#CCOC(=O)Nc1ccc(Cl)cc1"
result_value = -6.3

[[record]]
compound = "O=C(O)/C=C/C(=O)Nc1cc(Cl)cc2c1-c1c(Cl)cc(Cl)cc1C2O (stereo not given)"
result_value = 84

[[record]]
compound = "CC(C)C(Br)CCC1=CCC(Br)(Br)C1 (stereo not given)"
result_value = 88.5

[[record]]
compound = "NC(=O)CSc1ccccc1"
result_value = 9.8

[[record]]
compound = "C/C(O)=C(\\C=NC(=S)c1ccncc1)C(=O)Nc1ccccc1C"
result_value = -4.8

[[record]]
compound = "BrC1(Br)C2COCOCC21 (stereo not given)"
result_value = -1.05

[[record]]
compound = "CCOC(=O)C(C#N)C1CC2CCC1C2 (stereo not given)"
result_value = -22.2

[[record]]
compound = "C=C(Cl)C(Cl)(CBr)CCC(Cl)C(C)C (stereo not given)"
result_value = 85.2

[[record]]
compound = "COC(=O)C1CN=CN1CCc1ccccc1 (stereo not given)"
result_value = 5.25

[[record]]
compound = "CCOC(=O)C1CC2(CCC(=O)O2)C(=O)O1 (stereo not given)"
result_value = -20.6

[[record]]
compound = "COc1cc(/C=C/C(=O)NCCCCN)ccc1O"
result_value = 21.8

[[record]]
compound = "Brc1cccc(-c2nnc(-c3cccc4ccccc34)o2)c1"
result_value = 0.5

[[record]]
compound = "CCOC(=O)C(NC(=O)c1ccccc1)(N1CCN(c2cc3c(cc2F)c(=O)c(C(=O)O)cn3CC)CC1)C(F)(F)F (stereo not given)"
result_value = -3.3

[[record]]
compound = "CCN(CC)c1nc(NNS(=O)(=O)c2ccccc2)nc(N(CC)CC)n1"
result_value = 4.3

[[record]]
compound = "c1ccc(CSC2(SCc3ccccc3)CCCC2)cc1"
result_value = -22.6

[[record]]
compound = "CC(COc1ccccc1)OC(=O)CCl (stereo not given)"
result_value = -6.65

[[record]]
compound = "OC1c2ccccc2CCCC1N1CCCCC1 (stereo not given)"
result_value = 27.8

[[record]]
compound = "Cc1c2ccccc2nc(CSCC(O)CO)[n+]1[O-] (stereo not given)"
result_value = 12.3

[[record]]
compound = "NC(=O)N/N=C/C(/C=N/NC(N)=O)[N+](=O)[O-]"
result_value = -10.3

[[record]]
compound = "COC(=O)CCSSCCC(=O)OC"
result_value = -1.6

[[record]]
compound = "CCCN(CCC)C1=Nc2ccccc2-n2cnnc2C1"
result_value = -25.6

[[record]]
compound = "O=C(/C=C(/Nc1ccccc1)c1ccccc1)c1ccccc1"
result_value = 8.9

[[record]]
compound = "O=P1(c2ccccc2)OCC2=C(c3ccccc3)CC2=C1c1ccccc1 (stereo not given)"
result_value = 4.7

[[record]]
compound = "CCOc1ccccc1N1C(=O)C(=O)C(c2nc3ccccc3o2)C(=O)C1=O"
result_value = -8.4

[[record]]
compound = "CCOC(=O)NC(=O)c1cn(CCCOC(=O)CCCCCCCCCCC(=O)OCCCn2cc(C(=O)NC(=O)OCC)c(=O)n(C)c2=O)c(=O)n(C)c1=O"
result_value = -24.6

[[record]]
compound = "O=C1CC(=O)C(Br)=C1Br"
result_value = 99.5

[[record]]
compound = "C/C(=N/OC(=O)c1cccc2c(=O)c3ccccc3[nH]c12)[C@H]1CC[C@H]2[C@@H]3CCC4=C/C(=N/OC(=O)c5cccc6c(=O)c7ccccc7[nH]c56)CC[C@]4(C)[C@H]3CC[C@]12C"
result_value = 66.5

[[record]]
compound = "CCc1c(N)nc(=O)[nH]c1C(=O)O"
result_value = 10.1

[[record]]
compound = "CC[N+](C)(CC)CCOC(=O)C(C1=CCCCC1)C1(O)CCCCC1 (stereo not given)"
result_value = -27.5

[[record]]
compound = "CC(C)CNC(=O)/C=C/c1ccc2c(c1)OCO2"
result_value = -1.4

[[record]]
compound = "N#CCCN(CCC#N)c1ccc(/C=C2\\N=C(c3cc([N+](=O)[O-])ccc3Cl)N(NC(=O)CC(=O)Nc3ccccc3Cl)C2=O)cc1"
result_value = -13.8

